Reference for the values: patent US10918713B2

# Tested on: PBMC from allergic donors
# Assay Summary: IFN-γ ELISPOT with extract-stimulated short-term lines
# Type: cell-based, human
# Condition Notes: positive donor/peptide response; one donor per table line
Response (SFC/10^6) IFNg listing for selected substances.
Readout Label: Response (SFC/10^6) IFNg

# Substance, Units, Measured
measured = [
    ("3324.0379 (TNFEIEASFGVEASE)", "SFC/10^6", 1113),
    ("3324.0918 (NAMDEIIKSTDAEPA)", "SFC/10^6", 260),
    ("3324.0660 (IPTAFKIGTTYTPEE)", "SFC/10^6", 110),
    ("3324.0834 (KAFNKSYATFEDEEA)", "SFC/10^6", 1563),
    ("3324.0382 (LYPDVKYTTVEEYLQ)", "SFC/10^6", 67),
    ("3324.0372 (PAKNIYSFNEIVALW)", "SFC/10^6", 67),
    ("3324.0894 (NGKLHLSLIDPSTLS)", "SFC/10^6", 460),
]
